These measurements were taken from paper PMC9482650.

- EXPERIMENTAL TARGET: T1, LNX2_3, Q8N448
- T1 sequence (Q8N448 463-564, limits assumed, looked up): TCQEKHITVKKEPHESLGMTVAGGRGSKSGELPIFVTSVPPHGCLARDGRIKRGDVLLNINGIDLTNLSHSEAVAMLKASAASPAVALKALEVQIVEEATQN
- EXPERIMENTAL PROTOCOL: holdup assay
- Design: key: below the threshold = too weak to quantify, mostly under pKd 3.1 to 4
- TEST SETTINGS: plain residues with an end cap or a label only (N-terminal biotin on a linker: ado-ado)
PROPERTY: pKd

Solved cases (4 shown):
• EDPRVEVTQF [SLC22A9, Q8IVM8] = below the threshold
• KRPEMTSSSV [MUC3A, MUC3B, Q02505;Q9H195] = below the threshold
• STKRKLASAV [NCF1, P14598] = below the threshold
• DPAESMESLV [PTPRG, P23470] = below the threshold

Moving on to the next binder.
Qu. What measured pKd goes with GIKKITSTAL [RPS6KA3, P51812] ?
Ans. 3.49
